test.context: 293.15 K; Liquid; Closed cell (Static) method
measured.endpoint: vapor or sublimation pressure (kPa)
Expressed in kPa, but write only the number.

Solved entries (count: 3):
>  <compound>
C=C(C)[C@@H]1CC=C(C)CC1 [(S)-1-methyl-4-(1-methylethenyl)cyclohexene]

>  <vapor or sublimation pressure [kPa]>
0.1339

$$$$
>  <compound>
C[C@H]1CC[C@H]2C[C@@H]1C2(C)C [(-)-trans-pinane]

>  <vapor or sublimation pressure [kPa]>
0.2741

$$$$
>  <compound>
CC1=CC[C@@H]2[C@H](C1)C2(C)C [(+)-3-carene]

>  <vapor or sublimation pressure [kPa]>
0.1868

$$$$

From here, focus on the item given below.
Query block: Data request, read-out vapor or sublimation pressure, for C=C(C)[C@H]1CC=C(C)CC1 [(R)-1-methyl-4-(1-methylethenyl)cyclohexene]
Result block: 0.1343
